TEST NAME: Pharmacokinetic test in ICR mice, plasma concentration by LC/MS/MS
Format: in vivo
CONDITION DETAILS: ICR, mouse, plasma, dosage 2 mg/kg, route not given, read-out: Peak concentration Cmax
MEASURED ATTRIBUTE: Cmax (ng/mL)

{"columns": ["MOL SMILES", "MEASURED ATTRIBUTE", "RESULT VALUE"],
 "data": [
  ["[2H]C([2H])([2H])C(c1cc(Oc2c(Cl)cc(-n3nc(C#N)c(=O)[nH]c3=O)cc2Br)n[nH]c1=O)C([2H])([2H])[2H]", "Cmax", 960]
]}

====

ASSAY SYSTEM: THR-β (Homo sapiens, UniProt P10828)
Construct: A mixed solution of 4× TRα-LBD or TRβ-LBD and 4× RXRα was prepared
Sequence (P10828 217-461 limits assumed, other chains not shown): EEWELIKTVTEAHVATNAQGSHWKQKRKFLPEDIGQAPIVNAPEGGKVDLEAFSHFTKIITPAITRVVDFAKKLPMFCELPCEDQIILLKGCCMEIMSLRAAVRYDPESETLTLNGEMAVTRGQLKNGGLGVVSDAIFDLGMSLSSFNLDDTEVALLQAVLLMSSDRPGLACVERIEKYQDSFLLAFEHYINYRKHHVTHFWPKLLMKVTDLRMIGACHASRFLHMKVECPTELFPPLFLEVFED
Sequence (P19793 whole entry partner, other chains not shown, the tested form may be a part): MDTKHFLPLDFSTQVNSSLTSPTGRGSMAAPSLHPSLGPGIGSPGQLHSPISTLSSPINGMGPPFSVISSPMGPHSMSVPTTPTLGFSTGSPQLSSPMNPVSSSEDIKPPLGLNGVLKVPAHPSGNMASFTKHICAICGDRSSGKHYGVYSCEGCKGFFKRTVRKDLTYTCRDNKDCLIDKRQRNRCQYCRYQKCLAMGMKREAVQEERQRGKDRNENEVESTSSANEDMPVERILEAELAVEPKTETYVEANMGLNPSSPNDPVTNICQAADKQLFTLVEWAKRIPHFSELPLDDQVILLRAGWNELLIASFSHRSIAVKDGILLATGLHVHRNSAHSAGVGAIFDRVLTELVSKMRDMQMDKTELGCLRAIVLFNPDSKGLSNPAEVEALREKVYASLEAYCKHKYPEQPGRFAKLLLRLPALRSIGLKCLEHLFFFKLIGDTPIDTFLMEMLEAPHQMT
TEST NAME: Agonistic activity on THR-β (TRβ-LBD/RXRα, biotin-SRC2-2 recruitment, fluorescence ratio 665 nm/615 nm)
Simple rule here: EC50 less than 30 nM is 1, otherwise -1.

{"columns": ["MOL SMILES", "CLASSIFICATION"],
 "data": [
  ["CC(C)c1cc(Oc2c(Cl)cc(-n3nc(C#N)c(=O)[nH]c3=O)cc2Br)n[nH]c1=O", -1],
  ["[2H]C([2H])([2H])C(c1cc(Oc2c(Cl)cc(-n3nc(C#N)c(=O)[nH]c3=O)cc2Br)n[nH]c1=O)C([2H])([2H])[2H]", -1],
  ["[2H]C([2H])([2H])C(c1cc(Oc2c(Br)cc(-n3nc(C#N)c(=O)[nH]c3=O)cc2Br)n[nH]c1=O)C([2H])([2H])[2H]", 1],
  ["[2H]c1c(Oc2c(Cl)cc(-n3nc(C#N)c(=O)[nH]c3=O)cc2Br)n[nH]c(=O)c1C(C([2H])([2H])[2H])C([2H])([2H])[2H]", -1],
  ["[2H]c1c(Oc2c(Br)cc(-n3nc(C#N)c(=O)[nH]c3=O)cc2Br)n[nH]c(=O)c1C(C([2H])([2H])[2H])C([2H])([2H])[2H]", 1]
]}

====

TEST NAME: Pharmacokinetic test in ICR mice, plasma concentration by LC/MS/MS
Type: in vivo
CONDITION DETAILS: ICR, mouse, plasma, dosage 2 mg/kg, route not given, read-out: Exposure AUCinf
MEASURED ATTRIBUTE: AUC(0-inf)

{"columns": ["COMPOUND", "RESULT VALUE"],
 "data": [
  ["[2H]C([2H])([2H])C(c1cc(Oc2c(Cl)cc(-n3nc(C#N)c(=O)[nH]c3=O)cc2Br)n[nH]c1=O)C([2H])([2H])[2H] [Compound 2]", "9260 ng·h/mL"]
]}

====

ASSAY SYSTEM: THR-α (Homo sapiens, UniProt P10827)
Construct: A mixed solution of 4× TRα-LBD or TRβ-LBD and 4× RXRα was prepared
Sequence (P10827 163-410 isoform P10827-2 limits assumed, other chains not shown): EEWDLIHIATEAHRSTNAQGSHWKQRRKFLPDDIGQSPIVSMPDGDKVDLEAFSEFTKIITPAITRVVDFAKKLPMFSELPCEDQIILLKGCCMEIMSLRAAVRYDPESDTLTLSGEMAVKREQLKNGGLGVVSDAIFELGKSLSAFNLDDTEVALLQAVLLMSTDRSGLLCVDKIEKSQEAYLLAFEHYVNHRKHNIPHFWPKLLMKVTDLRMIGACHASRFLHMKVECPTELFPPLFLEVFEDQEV
TEST NAME: Agonistic activity on THR-α (TRα-LBD/RXRα, biotin-SRC2-2 recruitment, fluorescence ratio 665 nm/615 nm)
Simple rule here: EC50 less than 1000 nM is Fulfilled, otherwise Not fulfilled.

{"columns": ["MOL SMILES", "CLASSIFICATION"],
 "data": [
  ["[2H]c1c(Oc2c(Br)cc(-n3nc(C#N)c(=O)[nH]c3=O)cc2Br)n[nH]c(=O)c1C(C([2H])([2H])[2H])C([2H])([2H])[2H]", "Fulfilled"],
  ["CC(C)c1cc(Oc2c(Br)cc(-n3nc(C#N)c(=O)[nH]c3=O)cc2Br)n[nH]c1=O", "Fulfilled"],
  ["[2H]c1c(Oc2c(Cl)cc(-n3nc(C#N)c(=O)[nH]c3=O)cc2Br)n[nH]c(=O)c1C(C([2H])([2H])[2H])C([2H])([2H])[2H]", "Not fulfilled"],
  ["[2H]C([2H])([2H])C(c1cc(Oc2c(Br)cc(-n3nc(C#N)c(=O)[nH]c3=O)cc2Br)n[nH]c1=O)C([2H])([2H])[2H]", "Fulfilled"],
  ["[2H]C([2H])([2H])C(c1cc(Oc2c(Cl)cc(-n3nc(C#N)c(=O)[nH]c3=O)cc2Br)n[nH]c1=O)C([2H])([2H])[2H]", "Not fulfilled"]
]}

====

TEST NAME: Pharmacokinetic test in ICR mice, plasma concentration by LC/MS/MS
Format: in vivo
CONDITION DETAILS: ICR, mouse, plasma, dosage 5 mg/kg, route not given, read-out: Exposure AUCinf

{"columns": ["COMPOUND", "AUC(0-inf) / ng·h/mL"],
 "data": [
  ["CC(C)c1cc(Oc2c(Cl)cc(-n3nc(C#N)c(=O)[nH]c3=O)cc2Cl)n[nH]c1=O [MGL-3196, reference compound]", 9360]
]}

====

TEST NAME: Pharmacokinetic test in ICR mice, plasma concentration by LC/MS/MS
Type: in vivo
CONDITION DETAILS: ICR, mouse, plasma, dosage 2 mg/kg, route not given, read-out: Peak time Tmax
MEASURED ATTRIBUTE: Tmax (h)

{"columns": ["MOL SMILES", "RESULT VALUE"],
 "data": [
  ["[2H]C([2H])([2H])C(c1cc(Oc2c(Cl)cc(-n3nc(C#N)c(=O)[nH]c3=O)cc2Br)n[nH]c1=O)C([2H])([2H])[2H]", 4]
]}
